# reported relative viability; entries follow
Tested on: BEN
assay_notes: relative viability (nuclei count vs DMSO), 5 days (fraction); higher = more cells survive
recorded_conditions: first compound 0.006325 µM
Number only, please.

- molecule: "CCNC(=O)c1noc(-c2cc(C(C)C)c(O)cc2O)c1-c1ccc(CN2CCOCC2)cc1 [Luminespib] + CC(=O)Nc1cccc(-n2c(=O)n(C3CC3)c(=O)c3c(Nc4ccc(I)cc4F)n(C)c(=O)c(C)c32)c1 [Trametinib] (partner 0.02 µM)"
  target: "BEN"
  relative viability: 1

Which relative viability is reported for this molecule? CCNC(=O)c1noc(-c2cc(C(C)C)c(O)cc2O)c1-c1ccc(CN2CCOCC2)cc1 [Luminespib] + Nc1ncn([C@H]2C[C@H](O)[C@@H](CO)O2)c(=O)n1 [Decitabine] (partner 2 µM) 0.644

Which relative viability is reported for this molecule? CCNC(=O)c1noc(-c2cc(C(C)C)c(O)cc2O)c1-c1ccc(CN2CCOCC2)cc1 [Luminespib] + CC(C)C[C@H](NC(=O)[C@H](Cc1ccccc1)NC(=O)c1cnccn1)B(O)O [Bortezomib] (partner 0.002 µM) 0.542

Which relative viability is reported for this molecule? CCNC(=O)c1noc(-c2cc(C(C)C)c(O)cc2O)c1-c1ccc(CN2CCOCC2)cc1 [Luminespib] + COc1cccc2cc(-c3nc([C@H]4CC[C@H](C(=O)O)CC4)n4ncnc(N)c34)[nH]c12 [OSI-027] (partner 0.5 µM) 0.292
